Could you please report measured growth for the items listed next?
test system: SK-MEL-5 melanoma; assay: NCI-60 one-dose screen, 48 h (100 = growth as untreated, 0 = no growth, -100 = all killed); settings: 10 µM
Compounds without any hit were thinned out: in the full panel of roughly 83,000, 20% have a hit.
// return numeric value only (unit: %, not printed)

For `N#Cc1c(-c2ccccc2)nc(SCC(=O)N2CCOCC2)[nH]c1=O` the compound record lists growth as 102

For `CCCCCCOc1ccc(/C=C/C(=O)c2ccc(B(O)O)cc2)cc1` the compound record lists growth as 81.4

For `Cc1ccc(S(=O)(=O)Oc2ccccc2-c2ccccc2)cc1` the compound record lists growth as 5.97

For CC(C)C(C)C(N)C(=O)O (stereo unspecified) the compound record lists growth as 102

For `CCOCC[P+](c1ccccc1)(c1ccccc1)c1ccccc1` the compound record lists growth as 21.6

For `O=CNc1c(Cl)cc2c(c1Cl)Cc1cc([N+](=O)[O-])ccc1-2` the compound record lists growth as 5.14

For `CN(C)Cc1cccs1` the compound record lists growth as 90

For `O=C(CCl)N1c2ccccc2Sc2ccc3ccccc3c21` the compound record lists growth as 22.9

For OC(CNC1CCCC1)Cn1c2ccccc2c2ccccc21 (stereo unspecified) the compound record lists growth as -61.6

For `Cc1ccccc1C1=N[C@@H](Cc2ccccc2)C(=O)c2c(nc3ccccn23)N1` the compound record lists growth as 103

For Nc1nc2c(ncn2C2OC3COP(=O)(O)OC4C(COP(=O)(O)OC2C3O)OC(n2cnc3c(N)ncnc32)C4O)c(=O)[nH]1 (stereo unspecified) the compound record lists growth as 106

For `C[C@]12CC[C@H]3[C@@H](CCC4=CC(=O)CC[C@@]43C)[C@@H]1CC[C@@H]2c1csc(N)n1` the compound record lists growth as 9.04

For `CCN(CCCNC(=O)Cc1cc(=O)oc2cc(N(C)C)ccc12)CCNc1ccnc2cc(Cl)ccc12` the compound record lists growth as 76.2

For `Oc1[nH]c2ccccc2c1/C=c1/cc2c(c(-c3ccc(C(F)(F)F)cc3)n1)=Nc1ccccc1-2` the compound record lists growth as 57.2

For `Cc1ccc([P+](Cc2ccc([N+](=O)[O-])cc2)(c2ccc(C)cc2)c2ccc(C)cc2)cc1` the compound record lists growth as -12.4

For `COc1ccc(-c2cc(/C=C3\C(=O)Nc4cc(Cl)ccc43)[nH]n2)cc1OC` the compound record lists growth as 64.8

For CCCCCC(=O)N1c2ccccc2NC2=C(C(=O)CC(c3ccc(OC)c(OC)c3)C2)C1c1ccc(C(F)(F)F)cc1 (stereo unspecified) the compound record lists growth as 18.8

For `N=C(N)c1ccc(-c2ccc(-c3cccs3)s2)nc1` the compound record lists growth as 68.6

For `Cc1noc(C)c1-c1ccc2nc(NC(=O)[C@H]3CCN(C#N)C3)cn2c1` the compound record lists growth as 86.6

For `O=C1/C(=C/c2ccc(O)cc2O)N=C2SCCCN12` the compound record lists growth as 99.7

For N/C(=N\O)c1cn(C2OC(CO)C(O)C2O)c2ncnc(N)c12 (stereo unspecified) the compound record lists growth as -43

====

system: HOP-92 NSCLC; test: NCI-60 one-dose screen, 48 h (100 = growth as untreated, 0 = no growth, -100 = all killed); conditions: 10 µM
About 83,000 compounds went through this panel and 20% of them were active in at least one assay; those are over-represented in the sample as a whole.
Param threshold (30%) applies to growth; output class 1 when value >= threshold, class 0 when value < threshold.

Prompt: Is growth at least 30%? Consider `O=C1/C(=C/c2ccc(O)cc2)CSc2ccc(Cl)cc21`
Response: class 1

Prompt: Is growth at least 30%? Consider `COC(=O)[C@]12CC[C@@H](C)[C@H](C)[C@@H]1C1=CC[C@@H]3[C@@]4(C)C/C(=N\O)[C@H](O)[C@@]5(C)COC(=C45)C[C@@]3(C)[C@]1(C)CC2`
Response: class 0

Prompt: Is growth at least 30%? Consider `COC(=O)c1cnc2c(c1)Oc1ccccc1-c1ccnn1-2`
Response: class 1

Prompt: Is growth at least 30%? Consider `Cc1cc(Cl)ccc1Nc1nc(C(F)(F)F)ccc1C(=O)N/N=C/c1ccccc1Cl`
Response: class 0

Prompt: Is growth at least 30%? Consider `N#CN1CC[C@H](C(=O)Nc2ncc(-c3ccccc3)s2)C1`
Response: class 0

Prompt: Is growth at least 30%? Consider `O=C(NCc1cn(Cc2cccc(Oc3ccccc3)c2)nn1)c1cccnc1Nc1ccccc1`
Response: class 1

Prompt: Is growth at least 30%? Consider COc1ccc2oc(=O)cc(C3c4ccc([nH]4)C(c4cc(=O)oc5ccc(OC)cc45)c4ccc([nH]4)C(c4cc(=O)oc5ccc(OC)cc45)c4ccc([nH]4)C(c4cc(=O)oc5ccc(OC)cc45)c4ccc3[nH]4)c2c1 (centres undefined)
Response: class 1

Prompt: Is growth at least 30%? Consider `COc1cc(-c2nc(-c3nnc(-c4cccnc4)o3)c3ccccn23)cc(OC)c1OC`
Response: class 1

Prompt: Is growth at least 30%? Consider `O=[N+]([O-])c1ccc(-c2nc(-c3ccccc3)c(-c3ccccc3)n2-c2ccccc2)cc1`
Response: class 0

Prompt: Is growth at least 30%? Consider `CCOC(=O)CSC(=S)SCC(=O)OCC`
Response: class 1

Prompt: Is growth at least 30%? Consider `N#CCC1CCCC1`
Response: class 1

Prompt: Is growth at least 30%? Consider `O=C(Nc1cccc(-c2nc3ccccc3[nH]2)c1)c1cccc(NC(=O)c2ccco2)c1`
Response: class 1

Prompt: Is growth at least 30%? Consider CCCC(C)c1ccc(OCCCCCCN2CCNCC2)cc1 (centres undefined)
Response: class 0

Prompt: Is growth at least 30%? Consider CC(=O)Oc1c(C)c(C)c2c(c1C)CCC(C)(CC(=O)OCCCCCCCCCCC[P+](c1ccccc1)(c1ccccc1)c1ccccc1)O2 (centres undefined)
Response: class 0

Prompt: Is growth at least 30%? Consider COc1nc2c(c(=O)[nH]1)C(c1ccc(Oc3ccnc4cc(Cl)ccc34)c(OC)c1)C=C(c1cc(OC)c(OC)c(OC)c1)N2 (centres undefined)
Response: class 1

Prompt: Is growth at least 30%? Consider `COc1ccccc1S(=O)(=O)Nc1ccc2c(c1)CN(C)C(=O)N2`
Response: class 0

Prompt: Is growth at least 30%? Consider `CCOC(=O)Nc1ccc2c(c1)C(=O)N(CCOC)c1ccccc1O2`
Response: class 1

Prompt: Is growth at least 30%? Consider `CCCCNC(=O)Oc1ccc(/C(=C(\C)c2ccc(OC)cc2)c2ccc(OCCN3CCCCC3)cc2)cc1`
Response: class 1

====

tested on: HT29 colon; experiment: NCI-60 one-dose screen, 48 h (100 = growth as untreated, 0 = no growth, -100 = all killed); details: 10 µM
About 83,000 compounds went through this panel and 20% of them were active in at least one assay; those are over-represented in the sample as a whole. The source made the active and inactive calls. Rule for the calls: active = growth percent below 10; inactive = the rest.
reported-property: growth

For `COc1ccc(-c2nc(NC(=O)CS(=O)(=O)c3ccc(F)cc3)sc2C)cc1` the compound record lists growth as 4.71% (active)

For `CN1CCN(c2nc(-c3cccnc3)nc3sc4c(c23)CCCCCC4)CC1` the compound record lists growth as 91.3% (inactive)

For `COc1ccc(Cn2cc3c(c2-c2cc(OC)c(OC)c(OC)c2)CCc2cnoc2-3)cc1[N+](=O)[O-]` the compound record lists growth as 13.1% (inactive)

For `O=C(CCCC(=O)N/N=C/c1cc(Cl)ccc1O)N/N=C\c1cc(Cl)ccc1O` the compound record lists growth as 55.4% (inactive)

For `CCOC(=O)c1sc(Nc2ncccn2)nc1-c1ccccn1` the compound record lists growth as 99.6% (inactive)

For `C[C@@H]1C(=O)N(C[C@H](Cc2ccccc2)NC(=O)OCc2ccccc2)[C@]1(Cc1ccccc1)C(=O)OCc1ccccc1` the compound record lists growth as 43.7% (inactive)

For `CC(C)C[C@H](NC(=O)Cn1ccc2ccccc2c1=O)B(O)O` the compound record lists growth as 44.7% (inactive)

For CCN(CC)CC(O)CNc1ccnc2cc(Cl)c(Cl)cc12 (stereo unspecified) the compound record lists growth as 77.6% (inactive)

For `COc1ccc(-c2nc(SCC(=O)c3ccc(Br)cc3)[nH]c(=O)c2C#N)cc1` the compound record lists growth as 101% (inactive)

For O=C(c1ccccc1)C(Sc1ccccc1)c1ccccc1 (stereo unspecified) the compound record lists growth as 45.6% (inactive)

For `O=C(NNC(=O)c1ccncc1)Nc1ccc([N+](=O)[O-])cc1` the compound record lists growth as 99.5% (inactive)

For CC(=O)c1c(O)cc2c3c1OC(C)(C)C1CCC(C)(CC31)O2 (stereo unspecified) the compound record lists growth as 90.6% (inactive)

For `NCCNc1ccc2cc(-c3nc4ccccc4[nH]3)c(=O)oc2c1` the compound record lists growth as 108% (inactive)

For `CCCc1ccnc(NS(=O)(=O)c2ccc(N)cc2)n1` the compound record lists growth as 72.9% (inactive)

For `COc1c(C)c(C)c(OC)c2c1[nH]c(=O)c1c3cccnc3cn21` the compound record lists growth as 104% (inactive)

For `CNC(=O)c1cc(Oc2ccc(NC(=O)Nc3ccc(Cl)c(C(C)(C)C)c3)c(F)c2)ccn1` the compound record lists growth as 25.9% (inactive)

For `CCc1ccc(Nc2cc(C)nc3nc(C)nn23)cc1` the compound record lists growth as -76.3% (active)

For CCCCCC(=O)N1c2ccccc2NC2=C(C(=O)CC(c3ccc(OC)c(OC)c3)C2)C1c1ccc(C(F)(F)F)cc1 (stereo unspecified) the compound record lists growth as 88% (inactive)

For `CCOc1nc(-c2ccccc2)cc2c(O)c(C(=O)NCCCO)[nH]c(=O)c12` the compound record lists growth as 104% (inactive)

For Cc1cc(=O)oc2cc(OCc3cn(CC(O)CO)nn3)ccc12 (stereo unspecified) the compound record lists growth as 115% (inactive)

For CCOC(=O)C(CCC1=NC(C)(C)CC(C)O1)C(=O)OCC (stereo unspecified) the compound record lists growth as 32% (inactive)

Where do the numbers come from? From PubChem BioAssay (NCI).
